Where do these numbers come from? They come from patent US11306063B2.

EXPERIMENTAL_TARGET: USP2^CD (purified catalytic domain of USP2) (Homo sapiens, UniProt O75604)
Construct: The purified catalytic domain of USP2 (USP2^CD, in-house purified); His; made in house; host or cells: E. coli BL21 Gold
Sequence (O75604 267-599 limits assumed): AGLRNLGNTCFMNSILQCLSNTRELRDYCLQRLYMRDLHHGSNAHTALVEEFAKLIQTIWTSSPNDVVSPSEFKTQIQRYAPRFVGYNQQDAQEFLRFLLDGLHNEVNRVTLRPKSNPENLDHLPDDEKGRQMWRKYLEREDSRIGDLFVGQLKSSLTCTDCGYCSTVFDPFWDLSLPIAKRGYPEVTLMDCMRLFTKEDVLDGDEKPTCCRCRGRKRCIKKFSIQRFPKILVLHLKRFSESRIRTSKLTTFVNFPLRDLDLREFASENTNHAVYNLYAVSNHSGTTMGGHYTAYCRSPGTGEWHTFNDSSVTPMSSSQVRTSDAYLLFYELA
ASSAY_COMMENT: Inhibition of purified USP2^CD enzymatic activity (Ub-AMC or Ub-Rho substrate)
Assay type: biochemical
SETUP_CONDITIONS: 5 μM compound; Table 1b
Quick rule for you: inhibition at 5 µM at 70% or higher means 1 (yes), lower means 0 (no).

SMILES_CODE | CAT
O=C1c2ccccc2C(=O)c2nc(CS(=O)(=O)c3cccc(C(F)(F)F)c3)c(CS(=O)(=O)c3cccc(C(F)(F)F)c3)nc21 | 0 (no)
CCS(=O)(=O)Cc1nc2c(nc1CS(=O)(=O)CC)C(=O)c1ccccc1C2=O | 1 (yes)
CCCS(=O)(=O)Cc1nc2c(nc1CS(=O)(=O)CCC)C(=O)c1ccccc1C2=O | 1 (yes)
O=C1c2ccccc2C(=O)c2nc(CS(=O)(=O)c3ccc4c(c3)OCCO4)c(CS(=O)(=O)c3ccc4c(c3)OCCO4)nc21 | 0 (no)
COc1ccc(S(=O)(=O)Cc2nc3c(nc2CS(=O)(=O)c2ccc(OC)cc2)C(=O)c2ccccc2C3=O)cc1 | 0 (no)
O=C1c2ccccc2C(=O)c2nc(CS(=O)(=O)c3cccc(Cl)c3)c(CS(=O)(=O)c3cccc(Cl)c3)nc21 | 0 (no)
CCCCCS(=O)(=O)Cc1nc2c(nc1CS(=O)(=O)CCCCC)C(=O)c1ccccc1C2=O | 0 (no)
O=C1c2ccccc2C(=O)c2nc(CS(=O)(=O)c3cccc(F)c3)c(CS(=O)(=O)c3cccc(F)c3)nc21 | 0 (no)
CS(=O)(=O)Cc1nc2c(nc1CS(C)(=O)=O)C(=O)c1ccccc1C2=O | 0 (no)
O=C1c2ccccc2C(=O)c2nc(CS(=O)(=O)c3ccc(Br)s3)c(CS(=O)(=O)c3ccc(Br)s3)nc21 | 0 (no)
O=C1c2ccccc2C(=O)c2nc(CS(=O)(=O)c3ccc(F)c(F)c3F)c(CS(=O)(=O)c3ccc(F)c(F)c3F)nc21 | 0 (no)

###

EXPERIMENTAL_TARGET: USP8^CD (purified catalytic domain of USP8) (Homo sapiens, UniProt P40818)
Construct: the purified catalytic domain of USP8 (USP8^CD, in-house purified); made in house; host or cells: E. coli BL21 Gold
ASSAY_COMMENT: Inhibition of purified USP8^CD enzymatic activity (Ub-AMC or Ub-Rho substrate)
Type: biochemical
SETUP_CONDITIONS: Ub-Rhodamine substrate; Table 2a; read-out: IC50 against purified USP8^CD
Protocol: USP2CD or USP8CD were expressed in E. coli BL21 Gold. Cells were grown in LB Miller to mid-log phase and induced by addition of 0.5 mM IPTG for USP2CD for 5 h at 20° C., while 1 mM IPTG was added for USP8CD for 3 h at 37° C. Then, cells were harvested and frozen at −80° C. For His-tagged USP8CD, cells were resuspended in buffer A (50 mM TRIS pH 8.0, 500 mM NaCl, 2 mM Imidazole) and lysed using a sonicator. […]

MOLECULE | IC50
O=C1c2ccccc2C(=O)c2nc(CS(=O)(=O)c3ccc([N+](=O)[O-])cc3)c(CS(=O)(=O)c3ccc([N+](=O)[O-])cc3)nc21 [PCR7991] | 0.05 µM

###

EXPERIMENTAL_TARGET: USP8^CD (purified catalytic domain of USP8) (Homo sapiens, UniProt P40818)
Construct: the purified catalytic domain of USP8 (USP8^CD, in-house purified); made in house; host or cells: E. coli BL21 Gold
Sequence (P40818 777-1109 limits assumed): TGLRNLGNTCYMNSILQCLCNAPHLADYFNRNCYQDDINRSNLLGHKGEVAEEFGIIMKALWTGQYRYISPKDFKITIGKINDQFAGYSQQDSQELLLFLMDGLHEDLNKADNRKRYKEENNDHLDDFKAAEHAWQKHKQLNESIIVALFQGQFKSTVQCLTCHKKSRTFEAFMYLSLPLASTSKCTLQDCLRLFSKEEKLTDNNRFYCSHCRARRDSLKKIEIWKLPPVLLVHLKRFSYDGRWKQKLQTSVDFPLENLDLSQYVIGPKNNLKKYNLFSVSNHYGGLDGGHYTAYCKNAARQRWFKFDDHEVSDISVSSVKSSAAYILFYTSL
ASSAY_COMMENT: Inhibition of purified USP8^CD enzymatic activity (Ub-AMC or Ub-Rho substrate)
Type: biochemical
SETUP_CONDITIONS: 0.1 μM compound; Table 1d
OBSERVED_PROPERTY: inhibition at 0.1 µM (%)

COMPOUND | OBSERVED_PROPERTY | UNIT_STRING | RECORDED_RESULT
O=C1c2ccccc2C(=O)c2nc(CS(=O)(=O)c3ccc4c(c3)OCCO4)c(CS(=O)(=O)c3ccc4c(c3)OCCO4)nc21 [OVM19] | inhibition at 0.1 µM | % | -9
CS(=O)(=O)Cc1nc2c(nc1CS(C)(=O)=O)C(=O)c1ccccc1C2=O [VIN6076] | inhibition at 0.1 µM | % | 30
COc1ccc(S(=O)(=O)Cc2nc3c(nc2CS(=O)(=O)c2ccc(OC)cc2)C(=O)c2ccccc2C3=O)cc1 [PCR7994] | inhibition at 0.1 µM | % | -23

###

EXPERIMENTAL_TARGET: USP8^CD (purified catalytic domain of USP8) (Homo sapiens)
Construct: the purified catalytic domain of USP8 (USP8^CD, in-house purified); made in house; host or cells: E. coli BL21 Gold
ASSAY_COMMENT: Inhibition of purified USP8^CD enzymatic activity (Ub-AMC or Ub-Rho substrate)
Format: biochemical
SETUP_CONDITIONS: 50 μM compound; Ub-AMC at 1 μM; Table 1a
OBSERVED_PROPERTY: USP8^CD % inhibition (%)

COMPOUND | RECORDED_RESULT
O=C1c2ccccc2C(=O)c2nc(C=C3CCCC3)c(C=C3CCCC3)nc21 [PCR8153] | 100
O=C1c2ccccc2C(=O)c2nc(CS(=O)(=O)c3ccc(F)cc3)c(CS(=O)(=O)c3ccc(F)cc3)nc21 [PCR7993] | 102
CC/C=C/c1nc2c(nc1/C=C/CC)C(=O)c1ccccc1C2=O [PCR8156] | 86
O=C1c2ccccc2C(=O)c2nc(CCl)c(CCl)nc21 [PCR8146] | 100
Cc1cc(C)c(S(=O)(=O)Cc2nc3c(nc2CS(=O)(=O)c2c(C)cc(C)cc2C)C(=O)c2ccccc2C3=O)c(C)c1 [PCR7996] | 100
O=C1c2ccccc2C(=O)c2nc(CS(=O)(=O)c3cccs3)c(CS(=O)(=O)c3cccs3)nc21 [PCR7997] | 100
Cc1ccc(S(=O)(=O)Cc2nc3c(nc2CS(=O)(=O)c2ccc(C)cc2)C(=O)c2ccccc2C3=O)cc1 [PCR7985] | 98
O=C1c2ccccc2C(=O)c2nc(CS(=O)(=O)c3ccccc3)c(CS(=O)(=O)c3ccccc3)nc21 [PCR7986] | 36

###

Entries and their USP8^CD % inhibition values follow.
EXPERIMENTAL_TARGET: USP8^CD (purified catalytic domain of USP8) (Homo sapiens, UniProt P40818)
Construct: the purified catalytic domain of USP8 (USP8^CD, in-house purified); made in house; host or cells: E. coli BL21 Gold
Sequence (P40818 777-1109 limits assumed): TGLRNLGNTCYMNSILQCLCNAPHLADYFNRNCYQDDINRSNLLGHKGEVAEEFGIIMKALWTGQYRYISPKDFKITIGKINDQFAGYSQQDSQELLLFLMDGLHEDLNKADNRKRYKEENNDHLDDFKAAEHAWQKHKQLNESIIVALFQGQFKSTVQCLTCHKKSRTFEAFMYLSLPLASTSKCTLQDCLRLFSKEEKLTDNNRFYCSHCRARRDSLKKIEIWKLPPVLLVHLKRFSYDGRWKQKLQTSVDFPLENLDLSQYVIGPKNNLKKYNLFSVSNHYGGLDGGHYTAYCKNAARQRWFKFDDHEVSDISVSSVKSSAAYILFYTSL
ASSAY_COMMENT: Inhibition of purified USP8^CD enzymatic activity (Ub-AMC or Ub-Rho substrate)
Type: biochemical
SETUP_CONDITIONS: 25 μM compound; Ub-AMC at 1 μM; Table 1a

SMILES_CODE | USP8^CD % inhibition [%]
Cc1cc(C)c(S(=O)(=O)Cc2nc3c(nc2CS(=O)(=O)c2c(C)cc(C)cc2C)C(=O)c2ccccc2C3=O)c(C)c1 | 100
CC/C=C/c1nc2c(nc1/C=C/CC)C(=O)c1ccccc1C2=O | 100
O=C1c2ccccc2C(=O)c2nc(CS(=O)(=O)c3cccs3)c(CS(=O)(=O)c3cccs3)nc21 | 97
O=C1c2ccccc2C(=O)c2nc(CS(=O)(=O)c3ccc(F)cc3)c(CS(=O)(=O)c3ccc(F)cc3)nc21 | 101
O=C1c2ccccc2C(=O)c2nc(CCl)c(CCl)nc21 | 90
